tgt: HisAviTEV-hSTING (139-342) human REF-mutated protein (Homo sapiens, UniProt Q86WV6)
Construct: made in house; host or cells: E. coli Rosetta 2 (DE3), co-expressed with BirA (1-321)
Sequence (Q86WV6 with tags, fused parts or gaps, change not shown): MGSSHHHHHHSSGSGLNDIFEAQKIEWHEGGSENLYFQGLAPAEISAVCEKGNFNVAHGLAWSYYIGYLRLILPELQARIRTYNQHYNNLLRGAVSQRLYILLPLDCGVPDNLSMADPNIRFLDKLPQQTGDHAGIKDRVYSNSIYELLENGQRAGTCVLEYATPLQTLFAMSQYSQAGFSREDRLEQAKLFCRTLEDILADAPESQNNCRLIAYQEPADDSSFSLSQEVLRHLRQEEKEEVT
testDetails: Protein thermal shift assay, STING C-terminal binding domain protein
experimentalParameters: test compound final concentration 0.5 mM
attributeMeasured: ΔTm at 500 µM
Units required after the number.

NCCNc1nc(N)c2ncn([C@@H]3O[C@@H]4COP(=O)(S)O[C@H]5[C@@H](F)[C@H](n6cc7c8c(ncnc86)NCCC7)O[C@@H]5COP(=O)(S)O[C@@H]3[C@@H]4O)c2n1 (single isomer, unassigned) [37a]: 5.2 °C
NCCNc1nc(N)c2ncn([C@@H]3O[C@@H]4COP(=O)(S)O[C@H]5[C@@H](O)[C@H](n6cc7c8c(ncnc86)NCCC7)O[C@@H]5COP(=O)(S)O[C@@H]3[C@@H]4F)c2n1 (single isomer, unassigned) [42a]: 2.8 °C

Attention now shifts to the item below.
[ask] // map NCCNc1nc(N)c2ncn([C@@H]3O[C@@H]4COP(=O)(S)O[C@H]5[C@@H](F)[C@H](n6cc7c8c(ncnc86)NCCC7)O[C@@H]5COP(=O)(S)O[C@@H]3[C@@H]4F)c2n1 (single isomer, unassigned) [45a] to recorded ΔTm at 500 µM (system: HisAviTEV-hSTING (139-342) human REF-mutated protein (Homo sapiens, UniProt Q86WV6))
[reply] 4.4 °C
